Measurement record for DLD-1 cell strain, 5-FU resistant strain, FTD resistant strain; quantity recorded: methylation on microRNA, 5-FU parental strain.
Hey, just send me the number, nothing else.

INSERT INTO measurements (substance, test_result) VALUES
  ('miR-3131 (UCGAGGACUGGUGGAAGGGCCUU; chemistry not fully specified; listed as Homo sapiens)', 9),
  ('miR-4754 (AUGCGGACCUGGGUUAGCGGAGU; chemistry not fully specified; listed as Homo sapiens)', 3),
  ('miR-378e (ACUGGACUUGGAGUCAGGA; chemistry not fully specified; listed as Homo sapiens)', 11),
  ('miR-378f (ACUGGACUUGGAGCCAGAAG; chemistry not fully specified; listed as Homo sapiens)', 3),
  ('miR-378h (ACUGGACUUGGUGUCAGAUGG; chemistry not fully specified; listed as Homo sapiens)', 1);

Now take the following substance into account.
Request: Given the substance miR-3122 (GUUGGGACAAGAGGACGGUCUU; chemistry not fully specified; listed as Homo sapiens) , what is its reported methylation on microRNA, 5-FU parental strain?
Result: 0
